Attribute: ERYSGT Prot, PRCO (Percentage Reduction from Control)
- Test system: Blumeria graminis f.sp. tritici (ERYSGT)
- Test Method Notes: foliar fungicide test on wheat (Example 19)
- Format: in vivo
- Recorded Conditions: 100 ppm foliar (Prot) application on wheat; inoculated 6 hours or one day after application
Measure: ERYSGT Prot, PRCO (Percentage Reduction from Control)

>>> observed_measurement("CCOC(=O)CNN=C(C(=O)Nc1snc(C)c1Cl)c1ccc2oc(CC(C)(C)C)nc2c1 [Table 30 Compound 7]")
100
>>> observed_measurement("Cc1nsc(NC(=O)C(=CO)c2ccc3oc(CC(C)(C)C)nc3c2)c1Cl [Table 12 Compound 7]")
78
>>> observed_measurement("Cc1nsc(NC(=O)C(F)c2ccc3oc(CC(C)(C)C)nc3c2)c1Cl (centres unmarked) [Table 5 Compound 7]")
100
>>> observed_measurement("Cc1nsc(NC(=O)C(=CN(C)C)c2ccc3oc(CC(C)(C)C)nc3c2)c1Cl [Table 14 Compound 7]")
83
>>> observed_measurement("CC(=O)OCC(C(=O)Nc1snc(C)c1Cl)c1ccc2oc(CC(C)(C)C)nc2c1 (centres unmarked) [Table 28 Compound 7]")
98
